Reported TGI values for a set of molecules
- Test system: SN12C renal
- method_description: NCI tumour cell line growth inhibition, 48 h

The examples below pair each entry with its known result.
- C#Cc1cccc(N2C(=O)c3c(c(-c4ccccc4)c(-c4ccc(Cc5ccc(-c6c(-c7ccccc7)c7c(c(-c8ccccc8)c6-c6ccccc6)C(=O)N(c6cccc(C#C)c6)C7=O)cc5)cc4)c(-c4ccccc4)c3-c3ccccc3)C2=O)c1: > 100 µM
- C/C(=N\N=C(\N)SB(F)F)c1ccc2ccccc2c1: > 100 µM

Record lookup: for SN12C renal, what TGI belongs to CCc1ccc(NC(=O)NC(=O)c2ccccc2[N+](=O)[O-])cc1Oc1ncc(Cl)cn1 ? > 100 µM

Record lookup: for SN12C renal, what TGI belongs to O=c1c2cc(F)ccc2sc2c(N3CCNCC3)nc3ccc(F)cc3c12 ? 3.05 µM
